Test system: MS2 coat protein
Experiment: apparent KD of MS2 coat protein; designed switch direction (-1 OFF switch, 1 ON switch): -1; higher = weaker reporter binding
Conditions: Eterna round: R95; input ligand: FMN 200 uM
What apparent KD of MS2 coat protein was measured for each of the following?
Your answer should be a plain number; it is taken to be in nM.

Q: Tell me the measured apparent KD of MS2 coat protein of GGAAAGCAAGGAUAUACAAGUAAACGAUGGAAAGUAGAGAGACAUGAGGAUCACCCAUGUAGAAGGUGCGAGAG [JR_Exclu2_Sub036] (puzzle: Exclusion 2) , please.
Result: 24.1

Q: Subsequent entry: AAGUACCGUCACGAUAGUGAUGGUACAACAAGCAAAUGUACAUGAGGAUCACCCAUGUCCUCUUUUGCUCGUCUUAU [Sensor 3 - 94] (puzzle: Sensor v3, turn-off variant 2)
Result: 53.3

Q: Subsequent entry: GAGUGACAUGAGGAUCACCCAUGUGAGGAUAUCGGACGGACCAAAUUAACAACCGCCGCGAGAAGGCACAUCGG [Exclusion 1 V21] (puzzle: Exclusion 1)
Result: 130
